Target: T1, C-terminally FLAG-tagged human Gas6 recombinant protein (hGas6-F) (human, UniProt Q14393 31-678, gamma-carboxylated glutamic acid residues in the Gla domain (producer cells co-express rat VKOR and human GGCX); positions not given)
T1 construct: also called human Gas6-F; human Gas6 protein
T1 sequence: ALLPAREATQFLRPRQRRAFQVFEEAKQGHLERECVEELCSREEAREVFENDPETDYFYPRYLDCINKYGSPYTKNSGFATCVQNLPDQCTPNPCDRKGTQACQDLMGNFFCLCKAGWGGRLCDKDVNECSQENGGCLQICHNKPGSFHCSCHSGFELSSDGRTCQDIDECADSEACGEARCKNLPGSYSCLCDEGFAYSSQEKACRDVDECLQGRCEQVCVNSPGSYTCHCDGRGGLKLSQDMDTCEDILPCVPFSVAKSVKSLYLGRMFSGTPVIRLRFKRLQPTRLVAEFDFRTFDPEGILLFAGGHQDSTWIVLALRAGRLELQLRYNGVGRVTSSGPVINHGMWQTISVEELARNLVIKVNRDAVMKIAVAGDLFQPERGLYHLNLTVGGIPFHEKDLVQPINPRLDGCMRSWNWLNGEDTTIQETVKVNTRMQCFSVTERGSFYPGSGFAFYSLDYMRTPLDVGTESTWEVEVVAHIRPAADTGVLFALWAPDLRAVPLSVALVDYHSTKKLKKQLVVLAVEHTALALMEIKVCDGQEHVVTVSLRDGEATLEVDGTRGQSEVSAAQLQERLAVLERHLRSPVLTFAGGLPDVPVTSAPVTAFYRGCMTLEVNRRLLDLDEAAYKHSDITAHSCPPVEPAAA
Assay: SPR Biacore T100, captured antibody, Gas6 analyte, first test
quantity.name: koff (s⁻¹)
Give just the number in s⁻¹; leave the unit off.

hzKM5321 LV9HV0 antibody (antibody, V domains shown, Humanized; variant human IgG4 constant region (EU S228P, L235E, R409K), human kappa; also called B-11; LV9HV0) VH: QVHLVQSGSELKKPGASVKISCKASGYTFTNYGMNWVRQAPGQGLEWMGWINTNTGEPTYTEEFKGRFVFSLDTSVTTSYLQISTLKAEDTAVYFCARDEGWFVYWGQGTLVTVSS VL: ETTVTQSPSSLSVSTGDRVTITCITSTDIDDDMNWYQQKPGKPPKLLISEGNTLRPGVPSRFSSSGSGTDFTFTISSTQPEDFADYYCLQTDSVPLTFGQGTKLEIK = 0.000247
hzKM5321 LV0HV0 antibody (antibody, V domains shown, Humanized; variant human IgG4 constant region (EU S228P, L235E, R409K), human kappa; also called B-02; LV0HV0) VH: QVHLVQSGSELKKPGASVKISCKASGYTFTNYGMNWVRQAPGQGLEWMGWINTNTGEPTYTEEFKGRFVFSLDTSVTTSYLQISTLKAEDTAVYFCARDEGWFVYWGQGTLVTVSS VL: ETTLTQSPSSLSASVGDRVTITCITSTDIDDDMNWYQQKPGKAPKLLISEGNTLRPGVPSRFSGSGSGTDFTLTISSLQPEDFATYYCLQTDSVPLTFGQGTKVEIK = 0.000468
hzKM5321 LV1aHV7 antibody (antibody, V domains shown, Humanized; variant human IgG4 constant region (EU S228P, L235E, R409K), human kappa; also called B-13; LV1aHV7) VH: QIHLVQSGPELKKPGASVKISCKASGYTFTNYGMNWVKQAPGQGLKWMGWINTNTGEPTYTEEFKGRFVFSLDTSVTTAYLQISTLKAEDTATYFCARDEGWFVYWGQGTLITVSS VL: ETTLTQSPSSLSASVGDRVTITCITSTDIDDDMNWYQQKPGKPPKLLISEGNTLRPGVPSRFSGSGSGTDFTLTISSLQPEDFATYYCLQTDSVPLTFGQGTKVEIK = 0.000684
hzKM5321 LV3HV7 antibody (antibody, V domains shown, Humanized; variant human IgG4 constant region (EU S228P, L235E, R409K), human kappa; also called B-16; LV3HV7) VH: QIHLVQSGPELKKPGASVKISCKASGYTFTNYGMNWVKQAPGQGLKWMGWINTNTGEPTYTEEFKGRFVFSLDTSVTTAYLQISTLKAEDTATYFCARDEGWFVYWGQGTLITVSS VL: ETTLTQSPSSLSASTGDRVTITCITSTDIDDDMNWYQQKPGKAPKLLISEGNTLRPGVPSRFSGSGSGTDFTLTISSTQPEDFADYYCLQTDSVPLTFGQGTKVEIK = 0.000712
hzKM5321 LV1aHV0 antibody (antibody, V domains shown, Humanized; variant human IgG4 constant region (EU S228P, L235E, R409K), human kappa; also called B-03; LV1aHV0) VH: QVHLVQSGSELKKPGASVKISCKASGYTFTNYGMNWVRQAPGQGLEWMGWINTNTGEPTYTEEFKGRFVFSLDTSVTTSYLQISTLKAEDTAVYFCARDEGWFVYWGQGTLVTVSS VL: ETTLTQSPSSLSASVGDRVTITCITSTDIDDDMNWYQQKPGKPPKLLISEGNTLRPGVPSRFSGSGSGTDFTLTISSLQPEDFATYYCLQTDSVPLTFGQGTKVEIK = 0.000492

Attention now shifts to the item below.
Lookup: Find the recorded koff belonging to hzKM5320 LV2aHV8 antibody (antibody, V domains shown, Humanized; variant human IgG4 constant region (EU S228P, L235E, R409K), human kappa; also called A-13) VH: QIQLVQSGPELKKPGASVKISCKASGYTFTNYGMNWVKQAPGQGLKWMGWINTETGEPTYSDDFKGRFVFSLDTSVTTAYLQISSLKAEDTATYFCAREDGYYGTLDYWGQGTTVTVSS VL: DVVMTQSPDSLAVSLGERVTINCKASQSVSNDVAWYQQKPGQSPKLLIYYASNRYTGVPDRFSGSGSGTDFTLTISSVQAEDVAVYFCQQDYSSPWTFGQGTKLEIK and report it.
Found: 0.0008
